Target: Insulin receptor (Homo sapiens, UniProt P06213)
Sequence (P06213 28-758 limits assumed): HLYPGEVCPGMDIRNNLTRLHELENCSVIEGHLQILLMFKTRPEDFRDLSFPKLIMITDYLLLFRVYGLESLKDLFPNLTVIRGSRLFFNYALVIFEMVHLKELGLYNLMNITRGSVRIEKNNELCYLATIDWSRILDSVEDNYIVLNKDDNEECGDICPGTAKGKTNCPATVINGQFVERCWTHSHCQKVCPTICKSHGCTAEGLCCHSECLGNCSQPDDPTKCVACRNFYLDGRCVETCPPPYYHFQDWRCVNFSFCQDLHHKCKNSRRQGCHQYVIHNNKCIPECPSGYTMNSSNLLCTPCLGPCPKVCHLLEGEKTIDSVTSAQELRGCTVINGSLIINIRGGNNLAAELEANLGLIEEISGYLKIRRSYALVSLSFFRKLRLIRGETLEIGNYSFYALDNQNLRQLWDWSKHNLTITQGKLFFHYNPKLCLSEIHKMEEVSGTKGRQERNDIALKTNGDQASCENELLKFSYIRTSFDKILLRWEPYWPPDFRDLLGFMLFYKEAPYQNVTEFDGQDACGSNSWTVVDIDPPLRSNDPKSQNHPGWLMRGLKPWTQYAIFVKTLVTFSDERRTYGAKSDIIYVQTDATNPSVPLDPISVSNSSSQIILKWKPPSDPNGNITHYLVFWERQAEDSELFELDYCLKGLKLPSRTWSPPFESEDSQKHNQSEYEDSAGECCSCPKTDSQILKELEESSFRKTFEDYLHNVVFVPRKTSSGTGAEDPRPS
Sequence (P06213 763-1382 limits assumed): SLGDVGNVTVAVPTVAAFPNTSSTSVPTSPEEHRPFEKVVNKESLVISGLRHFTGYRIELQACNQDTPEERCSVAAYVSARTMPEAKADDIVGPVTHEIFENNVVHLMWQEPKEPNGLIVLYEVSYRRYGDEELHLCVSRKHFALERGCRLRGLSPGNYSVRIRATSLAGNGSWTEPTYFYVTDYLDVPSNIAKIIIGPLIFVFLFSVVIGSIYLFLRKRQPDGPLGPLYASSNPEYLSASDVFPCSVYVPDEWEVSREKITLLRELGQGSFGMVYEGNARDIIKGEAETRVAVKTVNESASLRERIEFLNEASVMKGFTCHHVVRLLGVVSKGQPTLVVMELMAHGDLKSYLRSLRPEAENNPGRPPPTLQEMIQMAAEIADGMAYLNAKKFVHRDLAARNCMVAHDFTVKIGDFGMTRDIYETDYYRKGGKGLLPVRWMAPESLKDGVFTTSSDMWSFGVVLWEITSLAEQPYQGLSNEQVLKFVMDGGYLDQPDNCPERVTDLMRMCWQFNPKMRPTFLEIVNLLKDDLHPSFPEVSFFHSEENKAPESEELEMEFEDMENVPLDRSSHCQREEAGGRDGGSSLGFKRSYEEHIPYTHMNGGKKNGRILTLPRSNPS
parameter: pKi
Answers are plain numbers, as −log10 of the molar value.

Input O=c1c(O)c(-c2cc(O)c(O)c(O)c2)oc2cc(O)cc(O)c12 [MYRICETIN] . Output pKi: 5.59

====

UniProtKB P00533 measurements of pIC50, listed per entry.
One number for each entry, as −log10 of the molar value.

Quick one: give me pIC50 for each item below, same order please.
1. CC(C)NC(=O)c1ccc(S(=O)(=O)Oc2ccc(/C=C/[N+](=O)[O-])cc2)cc1
2. N#C/C(=C\c1ccc(O)c(O)c1)C(=O)NCCc1ccccc1
3. N#C/C(=C\c1ccc(O)c(O)c1)C(=O)c1ccccc1

[6.00, 6.05, 6.00]

====

Target: Epidermal growth factor receptor (Homo sapiens, UniProt P00533)
Sequence (P00533 whole entry): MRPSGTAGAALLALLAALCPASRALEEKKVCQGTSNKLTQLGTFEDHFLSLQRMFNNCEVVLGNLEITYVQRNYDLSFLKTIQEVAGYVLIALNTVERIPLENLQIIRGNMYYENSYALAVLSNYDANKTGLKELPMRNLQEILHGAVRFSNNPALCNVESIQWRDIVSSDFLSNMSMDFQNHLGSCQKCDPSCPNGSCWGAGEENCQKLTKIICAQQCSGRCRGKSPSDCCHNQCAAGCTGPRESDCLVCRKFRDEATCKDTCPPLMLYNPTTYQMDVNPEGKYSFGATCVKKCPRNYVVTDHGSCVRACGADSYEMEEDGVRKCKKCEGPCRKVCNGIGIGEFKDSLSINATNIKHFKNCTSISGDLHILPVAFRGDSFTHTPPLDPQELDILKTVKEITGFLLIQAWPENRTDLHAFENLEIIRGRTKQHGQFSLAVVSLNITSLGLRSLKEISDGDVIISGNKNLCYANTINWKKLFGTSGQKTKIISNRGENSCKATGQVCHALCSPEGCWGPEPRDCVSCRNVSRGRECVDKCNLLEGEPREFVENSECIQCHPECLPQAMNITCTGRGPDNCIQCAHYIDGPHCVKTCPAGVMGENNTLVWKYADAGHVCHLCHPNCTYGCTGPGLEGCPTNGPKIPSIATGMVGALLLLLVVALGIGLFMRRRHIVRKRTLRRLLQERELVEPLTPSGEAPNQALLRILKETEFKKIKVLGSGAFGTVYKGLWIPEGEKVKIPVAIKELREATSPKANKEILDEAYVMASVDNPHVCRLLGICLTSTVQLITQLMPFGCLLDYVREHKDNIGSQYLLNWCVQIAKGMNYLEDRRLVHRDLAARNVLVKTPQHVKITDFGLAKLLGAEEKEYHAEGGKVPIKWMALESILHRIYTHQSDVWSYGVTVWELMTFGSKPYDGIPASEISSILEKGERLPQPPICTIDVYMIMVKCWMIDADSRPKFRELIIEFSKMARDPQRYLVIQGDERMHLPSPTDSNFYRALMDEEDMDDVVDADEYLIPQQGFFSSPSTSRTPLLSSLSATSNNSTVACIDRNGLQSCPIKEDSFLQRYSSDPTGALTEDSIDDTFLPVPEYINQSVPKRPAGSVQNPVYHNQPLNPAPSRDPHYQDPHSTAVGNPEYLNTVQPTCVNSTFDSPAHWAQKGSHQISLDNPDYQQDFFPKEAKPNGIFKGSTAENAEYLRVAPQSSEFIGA
pIC50: −log10 of the molar value.
Record form. Attribute: pIC50. Fill in for each entry.

Worked cases, pIC50 given:
mol=O=CN/C=C/c1ccccc1O parameter=pIC50 test_value="< 3.21"
mol=O=CN/C=C/c1ccc(O)cc1 parameter=pIC50 test_value="< 4.21"

Quick one: give me pIC50 for each item below, same order please.
1. COc1ccc(O)c(/C=C/NC=O)c1
2. O=CN/C=C/c1ccc(O)cc1O
3. O=CN/C=C/c1cccc(O)c1

1. < 4.51
2. < 3.78
3. < 4.21

Simply: "O=CN/C=C/c1cc(Br)ccc1O" , Epidermal growth factor receptor (Homo sapiens, UniProt P00533), pIC50 = < 4.61

====

Record form. Attribute: pIC50. Fill in for each entry.
Target: Tyrosine-protein kinase transforming protein Abl (Abelson murine leukemia virus, UniProt P00521)
Sequence (P00521 whole entry): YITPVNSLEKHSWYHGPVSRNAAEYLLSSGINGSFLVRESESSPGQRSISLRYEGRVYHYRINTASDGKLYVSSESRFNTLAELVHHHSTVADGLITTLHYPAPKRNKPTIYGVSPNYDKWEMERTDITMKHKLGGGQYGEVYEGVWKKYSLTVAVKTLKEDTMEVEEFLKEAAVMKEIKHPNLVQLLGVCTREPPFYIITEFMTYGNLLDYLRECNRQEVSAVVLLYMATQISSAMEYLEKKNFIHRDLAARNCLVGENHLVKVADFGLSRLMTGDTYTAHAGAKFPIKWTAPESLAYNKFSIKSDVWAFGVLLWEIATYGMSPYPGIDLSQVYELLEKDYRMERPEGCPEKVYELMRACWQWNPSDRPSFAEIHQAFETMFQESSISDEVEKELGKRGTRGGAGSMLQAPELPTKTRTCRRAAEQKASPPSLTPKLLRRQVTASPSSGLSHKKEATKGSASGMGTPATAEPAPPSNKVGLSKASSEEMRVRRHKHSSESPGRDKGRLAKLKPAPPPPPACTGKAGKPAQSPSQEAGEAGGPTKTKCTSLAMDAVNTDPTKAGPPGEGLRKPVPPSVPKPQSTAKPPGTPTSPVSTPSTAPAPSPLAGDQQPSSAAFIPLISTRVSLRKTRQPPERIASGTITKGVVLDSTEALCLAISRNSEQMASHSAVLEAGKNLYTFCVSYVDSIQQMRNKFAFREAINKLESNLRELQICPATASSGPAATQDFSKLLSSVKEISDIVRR
pIC50: −log10 of the molar value.

Worked cases, pIC50 given:
mol=COC(=O)c1ccc(S(=O)(=O)Oc2ccc(/C=C/[N+](=O)[O-])cc2)cc1O parameter=pIC50 test_value="< 4.00"
mol=CCCCNC(=O)c1ccc(S(=O)(=O)Oc2ccc(/C=C/[N+](=O)[O-])cc2)cc1 parameter=pIC50 test_value="< 4.00"

// below: pIC50 requested for another compound
Input "COC(=O)c1ccc(S(=O)(=O)Oc2ccc(/C=C/[N+](=O)[O-])cc2)cc1" . Output pIC50: < 4.00

====

Record form. Attribute: IC50. Fill in for each entry.
Molecular target: Tyrosine-protein kinase Lck (Homo sapiens, UniProt P06239)
Sequence (P06239 whole entry): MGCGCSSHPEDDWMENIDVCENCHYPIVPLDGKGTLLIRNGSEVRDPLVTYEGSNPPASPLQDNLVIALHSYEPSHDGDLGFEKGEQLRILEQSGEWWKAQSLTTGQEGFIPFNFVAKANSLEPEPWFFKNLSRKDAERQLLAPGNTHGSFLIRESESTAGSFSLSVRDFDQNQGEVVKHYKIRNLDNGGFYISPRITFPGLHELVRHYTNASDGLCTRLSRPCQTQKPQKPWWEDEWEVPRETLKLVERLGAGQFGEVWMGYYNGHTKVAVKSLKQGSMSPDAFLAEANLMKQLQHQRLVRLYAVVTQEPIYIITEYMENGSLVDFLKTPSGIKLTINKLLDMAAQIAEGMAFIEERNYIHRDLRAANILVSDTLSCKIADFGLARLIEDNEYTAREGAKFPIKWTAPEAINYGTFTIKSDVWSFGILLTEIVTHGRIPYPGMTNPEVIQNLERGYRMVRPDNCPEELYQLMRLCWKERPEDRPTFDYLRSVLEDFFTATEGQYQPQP

compound="O=C1c2ccccc2C(=O)c2c(O)cccc21 [1-HYDROXYANTHRAQUINONE]" test_value="> 3570 µM"
compound=COc1cc(-c2cc(=O)c3ccc(OC(C)=O)cc3o2)cc(OC)c1O test_value="> 2250 µM"

// below: IC50 requested for another compound
Input "COc1cc(-c2cc(=O)c3ccc(OC(C)=O)cc3o2)cc(OC)c1O[Si](C)(C)C(C)(C)C" . Output IC50: > 1700 µM

This collection of values is drawn from ChEMBL document CHEMBL1150213.
